bioavailability for assorted compounds
- assayProcedure: Oral bioavailability in Sprague-Dawley rat at 2 mg/kg
- Assay type: ADME, organism-based
- experimentalSetup: in vivo
Just the number in %, nothing appended.

Consider the worked cases shown below.
1. Cc1ccc(NC(=O)c2cccc(C(F)(F)F)c2)cc1C(=O)Nc1cnc(Nc2ccc(N3CCN(C)CC3)cc2)nc1    22
2. Cc1ccc(NC(=O)c2cc(F)cc(C(F)(F)F)c2)cc1C(=O)Nc1cnc(Nc2ccc(N3CCN(C)CC3)cc2)nc1    8
3. Cc1ccc(NC(=O)c2ccc3c(c2)OC(F)(F)O3)cc1C(=O)Nc1cnc(Nc2ccc(N3CCN(C)CC3)cc2)nc1    4
4. Cc1ccc(NC(=O)c2cccc(C(F)(F)F)c2C)cc1C(=O)Nc1cnc(Nc2ccc(N3CCN(C)CC3)cc2)nc1    7

Then there is this compound:
Exercise: I would be grateful if you could share the reported bioavailability for COc1cc(OC)cc(C(=O)Nc2ccc(C)c(C(=O)Nc3cnc(Nc4ccc(N5CCN(C)CC5)cc4)nc3)c2)c1 .
Solution: 8
